Some compounds, each annotated with its measured inhibition at 1 µM.
Target: MAGL (Mus musculus, UniProt O35678)
Construct: Proteomes (mouse brain membrane fraction or cell lysates); from tissue; host or cells: mouse brain membrane fraction (or cell lysates, not specified)
Sequence (O35678 1-303): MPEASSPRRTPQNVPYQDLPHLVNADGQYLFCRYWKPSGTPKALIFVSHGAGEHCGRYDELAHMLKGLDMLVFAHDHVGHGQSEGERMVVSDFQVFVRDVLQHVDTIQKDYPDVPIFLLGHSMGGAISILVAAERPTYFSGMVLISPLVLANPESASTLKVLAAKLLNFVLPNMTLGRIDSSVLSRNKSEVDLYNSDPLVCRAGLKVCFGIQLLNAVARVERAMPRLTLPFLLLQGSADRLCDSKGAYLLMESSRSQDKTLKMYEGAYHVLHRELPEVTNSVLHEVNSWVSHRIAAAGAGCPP
Assay: In vitro competitive activity-based protein profiling (gel-based, FP-Rh or HT-01 probe)
Assay type: biochemical
Settings: 1 μM inhibitor; gel-based competitive ABPP
measuredEndpoint: inhibition at 1 µM

molSmiles	measuredEndpoint	result
CCN(Cc1cccc(Cl)c1)C(=O)n1cc(C)cn1	inhibition at 1 µM	< 25%
N#Cc1cnn(C(=O)N2CCCCCC2)c1	inhibition at 1 µM	25 to 75%
N#Cc1cnn(C(=O)N2CCCN(Cc3ccc(Oc4ccccc4)cc3)CC2)c1	inhibition at 1 µM	> 75%
Cc1cnn(C(=O)N2CCCN(Cc3cccc(Oc4ccccc4)c3)CC2)c1	inhibition at 1 µM	> 75%
N#Cc1cnn(C(=O)N2CCCN(Cc3ccc(OCc4ccccc4)cc3)CC2)c1	inhibition at 1 µM	> 75%
CCN(Cc1ccc(N2CCOCC2)cc1)C(=O)n1cc(C#N)cn1	inhibition at 1 µM	> 75%
O=C(N1CCN(Cc2cccc(Cl)c2)CC1)n1cc(C(F)(F)F)cn1	inhibition at 1 µM	> 75%
CCN(Cc1cccc(C)c1)C(=O)n1cc(C(F)(F)F)cn1	inhibition at 1 µM	< 25%
Cc1cnn(C(=O)NCc2ccc(OCc3ccccc3)cc2)c1	inhibition at 1 µM	< 25%
COc1ccccc1CN1CCN(C(=O)n2cc(C(F)(F)F)cn2)CC1	inhibition at 1 µM	> 75%
O=C(N1CCN(Cc2cccc(F)c2)CC1)n1cc(C(F)(F)F)cn1	inhibition at 1 µM	> 75%
CCN(Cc1ccc(Cl)cc1)C(=O)n1cc(C#N)cn1	inhibition at 1 µM	> 75%
CCN(Cc1ccc(OC)cc1)C(=O)n1cc(C(F)(F)F)cn1	inhibition at 1 µM	> 75%
Cc1cccc(CN2CCN(C(=O)n3cc(C(F)(F)F)cn3)CC2)c1	inhibition at 1 µM	> 75%
CCN(Cc1cccc(OC)c1)C(=O)n1cc(C#N)cn1	inhibition at 1 µM	> 75%
O=C(N1CCN(Cc2ccccc2F)CC1)n1cc(C(F)(F)F)cn1	inhibition at 1 µM	> 75%
CCN(Cc1ccc(OC)cc1)C(=O)n1cc(C)cn1	inhibition at 1 µM	< 25%
NC(=O)c1cnn(C(=O)N2CCN(Cc3cccc(Oc4ccccc4)c3)CC2)c1	inhibition at 1 µM	> 75%
O=C(N1CCN(Cc2cccc(N3CCCC3)c2)CC1)n1cc(C(F)(F)F)cn1	inhibition at 1 µM	> 75%

----------
target: MAGL (Mus musculus); construct: Proteomes (mouse brain membrane fraction or cell lysates); from tissue; host or cells: mouse brain membrane fraction (or cell lysates, not specified); assay: In vitro competitive activity-based protein profiling (gel-based, FP-Rh or HT-01 probe); assay type: biochemical; details: 10 μM inhibitor

molSmiles	system	inhibition at 10 µM
O=C(c1ccccc1)N1CCCN(C(=O)n2cc(Cl)cn2)CC1	MAGL (Mus musculus)	> 75%
Cc1cnn(C(=O)N(C)CCN(C)C(=O)OC(C)(C)C)c1	MAGL (Mus musculus)	25 to 75%
Cc1cc(-c2ccccc2)ccc1CN1CCN(C(=O)n2cc(Cl)cn2)CC1	MAGL (Mus musculus)	> 75%
CC(=O)N(C)CCN(C)C(=O)n1cc(C#N)cn1	MAGL (Mus musculus)	< 25%
O=C(N1CCCN(Cc2ccccc2)CC1)n1cc(C(F)(F)F)cn1	MAGL (Mus musculus)	> 75%
CC(=O)N1CCCN(C(=O)n2cc(C#N)cn2)CC1	MAGL (Mus musculus)	< 25%
O=C(N1CCN(Cc2ccc(-c3ccccc3)cc2Cl)CC1)n1cc(C(F)(F)F)cn1	MAGL (Mus musculus)	> 75%
Cc1cc(-c2ccccc2)ccc1CN1CCN(C(=O)n2cc(C#N)cn2)CC1	MAGL (Mus musculus)	> 75%
Cc1cnn(C(=O)N2CCN(Cc3ccccc3)CC2)c1	MAGL (Mus musculus)	> 75%
O=C(N1CCN(c2cccc(N3CCOCC3)c2)CC1)n1cc(C(F)(F)F)cn1	MAGL (Mus musculus)	> 75%
O=C(N1CCN(Cc2ccncn2)CC1)n1cc(-c2ccccc2)cn1	MAGL (Mus musculus)	< 25%
CN(CCN(C)C(=O)n1cccn1)C(=O)OC(C)(C)C	MAGL (Mus musculus)	25 to 75%
O=C(N1CCN(c2ccccc2Cl)CC1)n1cc(C(F)(F)F)cn1	MAGL (Mus musculus)	> 75%
O=C(N1CCN(Cc2ccc(-c3ccccc3)cc2)CC1)n1cccn1	MAGL (Mus musculus)	> 75%
CN(CCN(C)C(=O)n1cc(C(F)(F)F)cn1)C(=O)c1ccccc1	MAGL (Mus musculus)	> 75%
N#Cc1cnn(C(=O)Nc2ccc3ccccc3c2)c1	MAGL (Mus musculus)	> 75%
O=C(c1cnn(C(=O)N2CCN(Cc3cncnc3)CC2)c1)N1CCCC1	MAGL (Mus musculus)	< 25%
O=C(NCCCCc1ccccc1)n1cccn1	MAGL (Mus musculus)	< 25%
Cc1ccccc1N1CCN(C(=O)n2cc(C(F)(F)F)cn2)CC1	MAGL (Mus musculus)	> 75%
